Multi-source literature compilation: IC50 on Mast/stem cell growth factor receptor Kit (Homo sapiens, UniProt P10721).

Reference set, count: 3
INSERT INTO results (chemical_smiles, reported_property, data_value) VALUES
  ('O=C(c1ccc(Nc2ccc(C3CC3)nc2)nc1F)c1c[nH]c2ncnc(C3CC3)c12', 'IC50', '< 100 nM'),
  ('CCN1CCC(Nc2ccc3c(c2)/C(=C(\c2ccc(C(F)(F)F)cc2)c2ncc[nH]2)C(=O)N3)CC1', 'IC50', '50 to 500 nM'),
  ('Cc1cnc2[nH]cc(C(=O)c3c(F)ccc(NS(C)(=O)=O)c3F)c2c1', 'IC50', '≤ 10000 nM');

Let us examine a further case.
Asked: Query the reported IC50 for Mast/stem cell growth factor receptor Kit (Homo sapiens, UniProt P10721); item: "COc1ccc(-c2c[nH]c3ncccc23)cc1F"
Given back: ≤ 10000 nM

###

From various publications: IC50 for Mast/stem cell growth factor receptor Kit (Homo sapiens, UniProt P10721).

INSERT INTO assay_data (compound, data_value) VALUES
  ('O=C(c1cc(NS(=O)(=O)c2ccc(Cl)cc2)ccc1F)c1c[nH]c2ncc(Cl)cc12', '≤ 10 µM'),
  ('COc1cc(OC)cc(C(=O)c2c[nH]c3ncc(Br)cc23)c1', '≤ 10 µM');

Asked: Form entry - test system: Mast/stem cell growth factor receptor Kit (Homo sapiens, UniProt P10721); read-out: IC50; compound: "COCCOCCOCCOCCNC(=O)c1c(C)[nH]c(/C=C2\C(=O)Nc3ccc(F)cc32)c1C"
Given back: 0.17 µM

Asked: Request - read-out IC50 | tested on Mast/stem cell growth factor receptor Kit (Homo sapiens, UniProt P10721) | compound "c1cc(CNc2ncc(Cc3c[nH]c4ncncc34)cn2)nc(N2CCOCC2)c1"
Given back: ≤ 10 µM

Asked: Request body: readout IC50, system Mast/stem cell growth factor receptor Kit (Homo sapiens, UniProt P10721), query "COc1cccc(Cc2c[nH]c3ncc(-c4ccsc4)cc23)n1" . Return the value.
Given back: ≤ 10 µM

Asked: Lab request: please report IC50 under test system Mast/stem cell growth factor receptor Kit (Homo sapiens, UniProt P10721) for "Nc1cccc(-c2cnc3[nH]cc(C(=O)c4ccc5nsnc5c4)c3c2)c1"
Given back: ≤ 10 µM

Asked: For the record "CCCCS(=O)(=O)Nc1ccc(F)c(C(=O)c2c[nH]c3ncc(-c4ccc(Cl)cc4)cc23)c1F" , what value of IC50 is listed for Mast/stem cell growth factor receptor Kit (Homo sapiens, UniProt P10721)?
Given back: ≤ 10 µM

Asked: Query the reported IC50 for Mast/stem cell growth factor receptor Kit (Homo sapiens, UniProt P10721); item: "O=C(c1c(F)ccc(NS(=O)(=O)c2ccc3c(c2)CCO3)c1F)c1c[nH]c2ncc(Cl)cc12"
Given back: ≤ 10 µM

###

Field: pIC50. System: Mast/stem cell growth factor receptor Kit (Homo sapiens, UniProt P10721). Provenance: assorted publications.
pIC50: −log10 of the molar value.

Example entries and their recorded answers appear below.
INSERT INTO results (chemical_smiles, data_value) VALUES
  ('O=C(c1c(F)ccc(NS(=O)(=O)c2ccc(-c3ccno3)s2)c1F)c1c[nH]c2ncc(Cl)cc12', '≥ 5.00'),
  ('Cc1ccc(Nc2ccc(C(=O)c3c[nH]c4ncnc(NC5CCCCC5)c34)c(F)n2)cn1', '> 6.00'),
  ('O=C(Nc1ccc(Cl)c(C(F)(F)F)c1)OCc1cccc(-c2cnc(N3CCNCC3)nc2)c1', '5.30 to 6.30');

We now examine a further compound.
Asked: Query the reported pIC50 for Mast/stem cell growth factor receptor Kit (Homo sapiens, UniProt P10721); item: "c1ccc(Oc2cnc3[nH]ccc3c2)cc1"
Given back: ≥ 5.00

###

Record set: IC50 | Mast/stem cell growth factor receptor Kit (Homo sapiens, UniProt P10721) | literature, multiple sources.

INSERT INTO results (chemical_smiles, reported_property, data_value) VALUES
  ('COc1cccc(C(=O)c2c[nH]c3ncc(-c4cccc(/C=C/C(=O)O)c4)cc23)c1', 'IC50', '≤ 10 µM'),
  ('COc1ccc(S(=O)(=O)Nc2ccc(F)c(C(=O)c3c[nH]c4ncc(Cl)cc34)c2F)cc1', 'IC50', '≤ 10 µM'),
  ('COc1cc(Cc2c[nH]c3ncccc23)ccc1OCc1ccc(Cl)cc1Cl', 'IC50', '≤ 10 µM'),
  ('COc1cncc(Nc2ccc(C(=O)c3c[nH]c4ncnc(NC5CCCCC5)c34)c(F)n2)c1', 'IC50', '< 1 µM');

Asked: I have this compound here, "COc1ncc(-c2cnc3[nH]cc(C(=O)c4c(F)ccc(NS(=O)(=O)c5ccc(F)cc5F)c4F)c3c2)cn1" , and I need its recorded IC50.
Given back: ≤ 10 µM

Asked: Tell me the measured IC50 of "COc1ccnc2[nH]cc(C(=O)c3c(F)ccc(NS(=O)(=O)c4cc(F)ccc4F)c3F)c12" , please.
Given back: ≤ 10 µM

Asked: Need IC50, item "Cc1ccc(Nc2ccc(C(=O)c3c[nH]c4ncnc(NCC(F)(F)F)c34)c(F)n2)cn1"
Given back: < 1 µM

Asked: Item "CCOc1ccc(Nc2ccc(Cc3c[nH]c4ncc(C)cc34)c(F)n2)cn1" has what recorded IC50?
Given back: < 0.1 µM

###

# IC50 against Mast/stem cell growth factor receptor Kit (Homo sapiens), merged from multiple literature sources

Consider the following illustrative entries.
INSERT INTO measurements (chemical_smiles, target_desc, reported_property, data_value) VALUES
  ('O=C(c1ccc(Nc2ccc(C3CC3)nc2)nc1F)c1c[nH]c2ncnc(NC3CC3)c12', 'Mast/stem cell growth factor receptor Kit (Homo sapiens)', 'IC50', '< 0.1 µM'),
  ('CS(=O)(=O)Nc1cccc(-c2cnc3[nH]cc(C(=O)c4cc(NS(=O)(=O)c5cccnc5)ccc4F)c3c2)c1', 'Mast/stem cell growth factor receptor Kit (Homo sapiens)', 'IC50', '≤ 10 µM'),
  ('COc1cc(CNc2ccc(Cc3c[nH]c4ncncc34)c(F)n2)ccn1', 'Mast/stem cell growth factor receptor Kit (Homo sapiens)', 'IC50', '≤ 10 µM');

Asked: Please provide the recorded IC50 for "O=C(c1cccc(NS(=O)(=O)c2ccc(OC(F)(F)F)cc2)c1)c1c[nH]c2ncc(Cl)cc12" , tested on Mast/stem cell growth factor receptor Kit (Homo sapiens).
Given back: ≤ 10 µM

Asked: Under Mast/stem cell growth factor receptor Kit (Homo sapiens): IC50 value of "COc1ccc(COc2ccc(Cc3c[nH]c4ncccc34)cc2OC)cc1" ?
Given back: ≤ 10 µM

###

// note: IC50 values for Mast/stem cell growth factor receptor Kit (Homo sapiens, UniProt P10721) were reported in different studies

Study these solved cases before continuing.
INSERT INTO assay_data (chemical_smiles, data_value) VALUES
  ('COc1cc(Cc2c[nH]c3ncc(Cl)cc23)c(F)cc1OCc1nc2cc(S(=O)(=O)N(C)C)ccc2[nH]1', '≤ 10 µM'),
  ('CCc1ccc(Nc2ccc(Cc3c[nH]c4ncnc(C5CC5)c34)c(F)n2)cn1', '< 0.1 µM');

Then this compound:
Asked: Recorded IC50 for "O=C(c1c(F)ccc(NS(=O)(=O)N2CCCC2)c1F)c1c[nH]c2nccc(Cl)c12" with Mast/stem cell growth factor receptor Kit (Homo sapiens, UniProt P10721), please?
Given back: ≤ 10 µM

###

Across several studies, compounds have been characterized by their pIC50 on Mast/stem cell growth factor receptor Kit (Homo sapiens); a selection follows.
pIC50: −log10 of the molar value.

// solved cases for pIC50 follow
INSERT INTO results (compound, data_value) VALUES
  ('COc1ccc(Nc2ncc(Cc3c[nH]c4ncc(C)cc34)cn2)cn1', '> 8.00'),
  ('CCC(C)NC(=O)Nc1ccc(F)c(C(=O)c2c[nH]c3ncc(-c4cccnc4)cc23)c1F (centres unmarked)', '≥ 5.00'),
  ('COc1cccc(Cc2c[nH]c3ncc(-c4ccc(C(N)=O)cc4)cc23)c1', '≥ 5.00'),
  ('Fc1nc(Nc2ccc(C3CC3)nc2)ccc1Cc1c[nH]c2ncnc(C3CC3)c12', '> 7.00'),
  ('Nc1cccc(-c2cnc3[nH]cc(C(=O)c4ccc(Cl)cc4)c3c2)c1', '≥ 5.00'),
  ('CCN1CCC(Nc2ccc3c(c2)/C(=C(\c2ccc(F)c(F)c2)c2ncc[nH]2)C(=O)N3)CC1', '6.30 to 7.30');

Asked: Please report the recorded pIC50 for "CCCS(=O)(=O)Nc1ccc(F)c(C(=O)c2c[nH]c3ncc(-c4ccc(N5CCCC5)nc4)cc23)c1F" .
Given back: ≥ 5.00

Asked: For the compound "Cc1cccc(C)c1Cc1c[nH]c2ncccc12" , what pIC50 is on record?
Given back: ≥ 5.00

Asked: Entry under review: "CNc1ncc2c(n1)N1CCN=C1C(c1cc(NS(=O)(=O)c3cccc(C(F)(F)F)c3)c(F)cc1C)=C2" . Reported pIC50?
Given back: < 5.00

Asked: Given "CCOc1ccc(Nc2ccc(Cc3c[nH]c4ncnc(OCCOC)c34)c(F)n2)cn1" , state its recorded pIC50.
Given back: > 6.00

Asked: What measured pIC50 goes with "CCCS(=O)(=O)Nc1ccc(F)c(C(=O)c2c[nH]c3ncc(N4CCN(C)CC4)cc23)c1F" ?
Given back: ≥ 5.00

Asked: What value of pIC50 has been recorded for this entry: "Clc1cccc(Cl)c1Cc1c[nH]c2ncc(-c3cccnc3)cc12"
Given back: ≥ 5.00

Asked: Data request, read-out pIC50, for "CCCS(=O)(=O)Nc1ccc(F)c(C(=O)c2c[nH]c3ncc(-c4ccc(C#CCN(CC)CC)nc4)cc23)c1F"
Given back: ≥ 5.00

Asked: State the recorded pIC50 for this entry: "O=C(Nc1cccc(C(=O)c2c[nH]c3ncc(Cl)cc23)c1)Nc1cccc(C(F)(F)F)c1F"
Given back: ≥ 5.00

Asked: Which value of pIC50 has been reported for "O=C(Nc1ccc(F)cc1)Nc1cccc(C(=O)c2c[nH]c3ncccc23)c1" in the records?
Given back: ≥ 5.00

Asked: Name the recorded pIC50 for "Cc1cnc2[nH]cc(C(=O)c3c(F)ccc(NS(=O)(=O)N4CCCC4)c3F)c2c1" .
Given back: ≥ 5.00

Asked: # lookup: pIC50 of "COc1ccc(CNc2ccc(Cc3c[nH]c4ncncc34)cn2)cn1"
Given back: ≥ 5.00

Asked: Would you mind telling me what pIC50 value was observed for "COc1cnc2[nH]cc(Cc3cc(F)c(OCc4nc5ccccc5[nH]4)cc3Cl)c2c1" ?
Given back: ≥ 5.00

Asked: pIC50 for "COc1cc(OC)cc(C(=O)c2c[nH]c3ncccc23)c1" ?
Given back: ≥ 5.00

Asked: What pIC50 value was documented for this compound, "COc1ncnc2[nH]cc(Cc3ccc(NCc4ccc(C(F)(F)F)nc4)nc3)c12" ?
Given back: ≥ 5.00

Asked: Could you share which pIC50 value was measured for "Cc1cc(C(=O)c2c[nH]c3ncc(-c4cccc(C(N)=O)c4)cc23)n(C)n1" ?
Given back: ≥ 5.00

Asked: Would you mind telling me what pIC50 value was observed for "O=C(c1cccc(O)c1)c1c[nH]c2ncc(-c3ccsc3)cc12" ?
Given back: ≥ 5.00
